target: Amyloid Beta (Aβ) 1-42 (human); assay: cell-based or functional assay
Sequence (peptide, as listed by the source): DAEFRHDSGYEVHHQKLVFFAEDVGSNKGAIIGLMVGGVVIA
observed.property: Total Area (under the curve of Abeta spots per neuron, % Abeta control)
Could you keep your reply to the number by itself?

Query string: Look at this binder and give its reported Total Area (under the curve of Abeta spots per neuron, % Abeta control). h2731 (antibody, V domains shown, Humanized IgG) VH: EVQLLESGGGLVQPGGSLRLSCAASGFTFSNYGMSWVRQAPGKGLEWVASIRSGSGRTYYSDNVKGRFTISRDNSKNTLYLQMNSLRAEDTAVYYCVRYDHYSGSSDYWGQGTLVTVSS VL: DVVMTQSPLSLPVTLGEPASISCKSSQSLLDYDGKTYLNWLLQKPGQSPQRLIYRVTNRDTGVPDRFSGSGSGTDFTLKISRVEAEDVGVYYCWQGTHFPRSFGQGTKVEIK
Result string: 7520

Query string: GET /values?readout=Total Area (under the curve of Abeta spots per neuron, % Abeta control)&item= h2931 (antibody, V domains shown, Humanized IgG) VH: EVQLLESGGGLVQPGGSLRLSCAASGFTFSNFGMSWVRQAPGKGLEWVASVRSGSGRTYYSDNVKGRFTISRDNSKNTLYLQMNSLRAEDTAVYYCVRYDHYTGTSDYWGQGTLVTVSS VL: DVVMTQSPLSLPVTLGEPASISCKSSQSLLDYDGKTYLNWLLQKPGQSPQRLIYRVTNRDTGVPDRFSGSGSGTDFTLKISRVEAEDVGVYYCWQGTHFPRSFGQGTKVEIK
Result string: 8480

Query string: Which Total Area (under the curve of Abeta spots per neuron, % Abeta control) reading was recorded for the binder h2726 (antibody, V domains shown, Humanized IgG, detected with anti-human IgG) VH: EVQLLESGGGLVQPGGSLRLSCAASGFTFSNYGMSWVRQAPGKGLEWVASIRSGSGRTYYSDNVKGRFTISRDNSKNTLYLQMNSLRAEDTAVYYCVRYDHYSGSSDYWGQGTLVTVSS VL: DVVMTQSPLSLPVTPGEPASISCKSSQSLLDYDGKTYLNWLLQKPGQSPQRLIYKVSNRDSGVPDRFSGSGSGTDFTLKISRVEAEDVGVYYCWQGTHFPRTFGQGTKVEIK ?
Result string: 9070

From here, focus on the item given below.
Query string: Endpoint output: Total Area (under the curve of Abeta spots per neuron, % Abeta control) of h2831 (antibody, V domains shown, Humanized IgG) VH: EVQLLESGGGLVQPGGSLRLSCAASGFTFSNFGMSWVRQAPGKGLEWVASVRSGSGRTYYSDNVKGRFTISRDNSKNTLYLQMNSLRAEDTAVYYCVRYDHYSGTSDYWGQGTLVTVSS VL: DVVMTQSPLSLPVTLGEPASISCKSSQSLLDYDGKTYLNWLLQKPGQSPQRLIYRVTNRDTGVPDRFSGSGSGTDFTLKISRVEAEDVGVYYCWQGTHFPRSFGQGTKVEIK . Value?
Result string: 6500
